molecular target: T1, Recombinant murine PDGF-BB (mouse, UniProt P31240 82-190, limits assumed); assay: SPR (ProteOn), biotinylated PDGF-BB on neutravidin chip, DARPin injected; Kd from on- and off-rates
T1 construct: For SPR chemically biotinylated on primary amines and captured on neutravidin; also called mouse PDGF-BB; PDGF-BB (mouse)
T1 sequence (P31240 82-190 limits assumed): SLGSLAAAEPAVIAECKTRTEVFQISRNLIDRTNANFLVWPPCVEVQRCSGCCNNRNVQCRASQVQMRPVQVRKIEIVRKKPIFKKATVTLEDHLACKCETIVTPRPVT
Listed below: Kd values for each entry.

| binder | Kd |
| --- | --- |
| DARPin #40 (designed binder) MRGSHHHHHHGSDLGYKLLSAAQYGQDDEVRILLAAGADVNAKDYSGTTPLHYAATWGHLEIVEVLLKAGADVNAQDIYGATPADLAALIGHEDIAEVLQKLN | 0.0608 nM |

Query string: Look up Kd of DARPin #36 (designed binder) MRGSHHHHHHGSDLGSKLLTAALDGQDDEVRILLAAGADVNAKDEEGTTPLHYAAVVGHLEIVEVLLKAGADVNAQDIWGATPADLAALVGHEDIAEVLQKLN and report it.
Result string: 0.053 nM

Query string: Look up Kd of DARPin #35 (designed binder) MRGSHHHHHHGSDLGQKLLYAAEHGQDDEVRILLAAGADVNAKDQTGSTPLHYAAVWGHMEIVEVLLKAGADVNAQDLWGATPADLAAFLGHEDIAVVLQKLN and report it.
Result string: 0.0981 nM

Query string: Look up Kd of DARPin #43 (designed binder) MRGSHHHHHHGSDLGLKLLEAAQRGQDDEVRILLAAGADVNAKDREGWTPLHVAAYEGHLEIVEVLLKAGADVNAKDYTGLTPLHVAAVWGHLEIVEVLLKAGADVNAQDIYGATPADLAAYIGHEDIAEVLQKLN and report it.
Result string: 1510 nM
